Hello, the source for this data is ChEMBL document CHEMBL1961873, in case you need it.

Documented inhibition across a set of molecules
- experimental-system: Discoidin domain-containing receptor 2 (Homo sapiens) (UniProt Q16832);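 note: reported values are mean percent inhibition of DDR2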
- Sequence (Q16832 whole entry, the tested form may be a part): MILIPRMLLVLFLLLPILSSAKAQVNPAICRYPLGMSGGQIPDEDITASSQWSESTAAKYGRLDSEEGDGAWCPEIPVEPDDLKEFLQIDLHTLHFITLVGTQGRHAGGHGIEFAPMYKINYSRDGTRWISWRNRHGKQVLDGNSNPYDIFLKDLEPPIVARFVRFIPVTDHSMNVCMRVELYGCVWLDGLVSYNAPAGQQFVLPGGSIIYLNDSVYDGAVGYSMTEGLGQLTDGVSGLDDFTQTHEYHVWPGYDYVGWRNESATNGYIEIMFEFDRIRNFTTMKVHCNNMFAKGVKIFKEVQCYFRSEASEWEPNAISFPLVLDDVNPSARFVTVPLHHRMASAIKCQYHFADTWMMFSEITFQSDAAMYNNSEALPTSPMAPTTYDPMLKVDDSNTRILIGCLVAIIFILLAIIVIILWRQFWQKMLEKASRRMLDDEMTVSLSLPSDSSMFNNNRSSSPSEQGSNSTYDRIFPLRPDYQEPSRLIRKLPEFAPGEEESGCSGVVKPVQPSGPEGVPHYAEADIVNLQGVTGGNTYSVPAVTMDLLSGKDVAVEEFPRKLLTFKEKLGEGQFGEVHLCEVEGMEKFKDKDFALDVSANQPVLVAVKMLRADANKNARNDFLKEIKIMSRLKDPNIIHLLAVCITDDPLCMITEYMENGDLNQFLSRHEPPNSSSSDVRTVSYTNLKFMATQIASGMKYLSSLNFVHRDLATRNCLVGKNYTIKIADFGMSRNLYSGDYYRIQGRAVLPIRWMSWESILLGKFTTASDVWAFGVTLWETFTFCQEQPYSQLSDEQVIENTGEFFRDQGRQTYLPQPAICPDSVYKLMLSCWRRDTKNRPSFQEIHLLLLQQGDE
- settings: at 0.1 µM
State the answer as a number, implicitly in %.

Worked examples, 8 molecules total:
{"mol": "NC(=O)c1cccc(Nc2nccc(Nc3cccc(F)c3)n2)c1", "experimental-system": "Discoidin domain-containing receptor 2 (Homo sapiens) (UniProt Q16832)", "inhibition / %": -1.54}
{"mol": "COc1cccc(-n2ncc3c(N/N=C/c4ccc(S(C)(=O)=O)cc4)ncnc32)c1", "experimental-system": "Discoidin domain-containing receptor 2 (Homo sapiens) (UniProt Q16832)", "inhibition / %": 1.49}
{"mol": "FC(F)(F)c1ccc(-c2nn3ncccc3c2-c2ccnc(Nc3ccc4c(c3)OCCO4)n2)cc1", "experimental-system": "Discoidin domain-containing receptor 2 (Homo sapiens) (UniProt Q16832)", "inhibition / %": 8.59}
{"mol": "CN(C)C(=O)O[C@H]1CN[C@H](C#Cc2cc3ncnc(Nc4ccc(OCc5cccc(F)c5)c(Cl)c4)c3s2)C1", "experimental-system": "Discoidin domain-containing receptor 2 (Homo sapiens) (UniProt Q16832)", "inhibition / %": 1.62}
{"mol": "COc1cccc(-n2ncc3c(N/N=C/c4ccc(C)cc4)ncnc32)c1", "experimental-system": "Discoidin domain-containing receptor 2 (Homo sapiens) (UniProt Q16832)", "inhibition / %": 0.39}
{"mol": "Cc1cc(Cl)cc2c1NC(=O)C2=NNc1ccc(S(N)(=O)=O)cc1", "experimental-system": "Discoidin domain-containing receptor 2 (Homo sapiens) (UniProt Q16832)", "inhibition / %": 5.11}
{"mol": "CN(C)c1cc2c(Nc3ccc4c(cnn4Cc4ccccc4)c3)ncnc2cn1", "experimental-system": "Discoidin domain-containing receptor 2 (Homo sapiens) (UniProt Q16832)", "inhibition / %": 1.06}
{"mol": "C[C@@H](Oc1cc(-n2cnc3ccc(OC[C@@H](O)CO)cc32)sc1C(N)=O)c1ccccc1Cl", "experimental-system": "Discoidin domain-containing receptor 2 (Homo sapiens) (UniProt Q16832)", "inhibition / %": 0.32}

Short answer for Nc1ccc(C#Cc2cncnc2Nc2ccc(OCc3cccc(F)c3)c(Cl)c2)cc1 : inhibition was 1.32

For this molecule ( c1ccc(Cc2nc3ccc(Nc4ncnc5ccccc45)cc3[nH]2)cc1 ), measured inhibition is 0.85

----------
A collection of molecules and their measured inhibition
- experimental-system: Receptor-type tyrosine-protein kinase FLT3 (Homo sapiens);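 note: values are mean percent inhibition of FLT3 kinase activity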
- settings: at 1 µM
Supply the numeric figure in %, leaving out any unit text.

Reference set, count: 4
{"mol": "O=C(Nc1ccc(Oc2ccc3[nH]c(NC(=O)c4ccco4)nc3c2)cc1)Nc1cc(C(F)(F)F)ccc1F", "inhibition / %": 70.7}
{"mol": "NS(=O)(=O)c1ccc(N/N=C2\\C(=O)Nc3ccc(Cl)cc32)cc1", "inhibition / %": 66.7}
{"mol": "Cc1ccc2c(c1)/C(=N/Nc1ccc(S(N)(=O)=O)cc1)C(=O)N2", "inhibition / %": 61.7}
{"mol": "CN(C)c1cc2c(Nc3ccc4c(cnn4Cc4ccccc4)c3)ncnc2cn1", "inhibition / %": 1.77}

Then there is this molecule:
So the reported inhibition for Cc1cc(O)cc(C)c1/C=C/c1cncc(C(=O)N(C)C)c1 , on Receptor-type tyrosine-protein kinase FLT3 (Homo sapiens), turned out to be 2.25

----------
- experimental-system: Tyrosine-protein kinase Lck (Homo sapiens);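 note: reported values are mean percent inhibition of Lck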
- settings: at 0.1 µM
Recorded inhibition for the following molecules
Report the value in % with no unit label.

Consider the following illustrative entries.
{"mol": "Nc1nccc(-c2c(-c3ccc(F)cc3)ncn2CCCN2CCOCC2)n1", "unit-spec": "%", "inhibition": 2.05}
{"mol": "Cc1ccc2c(c1)/C(=N/Nc1ccc(S(N)(=O)=O)cc1)C(=O)N2", "unit-spec": "%", "inhibition": 1.15}
{"mol": "CCn1c(-c2nonc2N)nc2c(C#CC(C)(C)O)nc(OCCNC)cc21", "unit-spec": "%", "inhibition": 2.55}
{"mol": "c1ccc(Nc2ncc(-c3ccccc3)o2)cc1", "unit-spec": "%", "inhibition": 3.52}

Switching to the query record.
Lab note: O=S(=O)(CCOCc1ccc(-c2ccc3ncnc(Nc4ccc(OCc5cccc(F)c5)c(Cl)c4)c3c2)o1)c1ccccc1 gave inhibition of 1.96

----------
# key: entry, value: inhibition
- experimental-system: High affinity nerve growth factor receptor (Homo sapiens) (UniProt P04629);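 note: each value is the mean percent inhibition of TRKA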
- Sequence (P04629 33-796 limits assumed): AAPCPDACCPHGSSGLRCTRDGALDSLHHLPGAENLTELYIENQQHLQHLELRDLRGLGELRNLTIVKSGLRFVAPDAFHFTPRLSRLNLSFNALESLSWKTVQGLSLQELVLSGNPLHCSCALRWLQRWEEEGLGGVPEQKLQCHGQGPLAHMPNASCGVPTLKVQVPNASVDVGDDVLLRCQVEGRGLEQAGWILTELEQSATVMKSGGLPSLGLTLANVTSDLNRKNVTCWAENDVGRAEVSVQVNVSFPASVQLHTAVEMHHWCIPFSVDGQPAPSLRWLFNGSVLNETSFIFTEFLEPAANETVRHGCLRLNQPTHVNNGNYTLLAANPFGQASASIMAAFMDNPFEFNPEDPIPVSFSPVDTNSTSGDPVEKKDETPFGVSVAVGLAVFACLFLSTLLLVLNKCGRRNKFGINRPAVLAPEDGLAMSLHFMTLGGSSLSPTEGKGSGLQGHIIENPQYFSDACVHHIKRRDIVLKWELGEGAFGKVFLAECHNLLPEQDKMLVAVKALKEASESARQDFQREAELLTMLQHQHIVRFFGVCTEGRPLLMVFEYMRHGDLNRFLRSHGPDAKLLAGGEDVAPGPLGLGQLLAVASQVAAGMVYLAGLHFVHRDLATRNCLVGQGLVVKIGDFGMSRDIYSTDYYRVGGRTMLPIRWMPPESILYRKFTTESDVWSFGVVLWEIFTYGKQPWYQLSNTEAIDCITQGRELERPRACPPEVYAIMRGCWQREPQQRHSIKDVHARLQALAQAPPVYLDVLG
- settings: at 1 µM
Write the answer as a number in %, unit excluded.

{"molecule": "CN(C)c1cc2c(Nc3ccc4c(cnn4Cc4ccccc4)c3)ncnc2cn1", "experimental-system": "High affinity nerve growth factor receptor (Homo sapiens) (UniProt P04629)", "inhibition [%]": 1.97}

Considering O=C1Nc2ccccc2/C1=C/Nc1ccc2[nH]c(=O)[nH]c2c1 , its inhibition with High affinity nerve growth factor receptor (Homo sapiens) (UniProt P04629) was recorded as 53.9

inhibition value, target or system High affinity nerve growth factor receptor (Homo sapiens) (UniProt P04629), for COc1ccc(-c2nn3ncccc3c2-c2ccnc(Nc3cccc(C(F)(F)F)c3)n2)cc1 : 3.94

The observed inhibition for CCCN1CCCC(c2ccc(Nc3nc(Nc4cc(F)ccc4C(N)=O)c4cc[nH]c4n3)c(OC)c2)C1 (centres undefined) when tested with High affinity nerve growth factor receptor (Homo sapiens) (UniProt P04629) stands at 5.65

FC(F)(F)c1ccc(-c2nn3ncccc3c2-c2ccnc(Nc3ccc4c(c3)OCCO4)n2)cc1 tested on High affinity nerve growth factor receptor (Homo sapiens) (UniProt P04629) gave inhibition: 0.14

inhibition of COc1cccc(-n2nc(C)c3c(N/N=C(\C)c4ccncc4)ncnc32)c1 , assay on High affinity nerve growth factor receptor (Homo sapiens) (UniProt P04629), is 2.57

Item ON=C1CCc2cc(-c3nc(C4CCNCC4)[nH]c3-c3ccncc3)ccc21 ; assay system High affinity nerve growth factor receptor (Homo sapiens) (UniProt P04629); inhibition reported as -1.26

Measured inhibition (High affinity nerve growth factor receptor (Homo sapiens) (UniProt P04629)), entry C[C@@H](Oc1cc(-n2cnc3ccc(OCC4CCN(C)CC4)cc32)sc1C(N)=O)c1ccccc1C(F)(F)F : 0.72

Per the reported High affinity nerve growth factor receptor (Homo sapiens) (UniProt P04629) data, OCc1ccc(-c2nc(-c3ccccn3)c(-c3ccc4c(c3)OCO4)[nH]2)cc1 has inhibition of 3.45

----------
The entries below are paired with their reported inhibition.
- experimental-system: Muscle, skeletal receptor tyrosine-protein kinase (Homo sapiens) (UniProt O15146);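 note: values are mean inhibition of MuSK from the GSK PKIS kinase screening panel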
- Sequence (O15146 whole entry): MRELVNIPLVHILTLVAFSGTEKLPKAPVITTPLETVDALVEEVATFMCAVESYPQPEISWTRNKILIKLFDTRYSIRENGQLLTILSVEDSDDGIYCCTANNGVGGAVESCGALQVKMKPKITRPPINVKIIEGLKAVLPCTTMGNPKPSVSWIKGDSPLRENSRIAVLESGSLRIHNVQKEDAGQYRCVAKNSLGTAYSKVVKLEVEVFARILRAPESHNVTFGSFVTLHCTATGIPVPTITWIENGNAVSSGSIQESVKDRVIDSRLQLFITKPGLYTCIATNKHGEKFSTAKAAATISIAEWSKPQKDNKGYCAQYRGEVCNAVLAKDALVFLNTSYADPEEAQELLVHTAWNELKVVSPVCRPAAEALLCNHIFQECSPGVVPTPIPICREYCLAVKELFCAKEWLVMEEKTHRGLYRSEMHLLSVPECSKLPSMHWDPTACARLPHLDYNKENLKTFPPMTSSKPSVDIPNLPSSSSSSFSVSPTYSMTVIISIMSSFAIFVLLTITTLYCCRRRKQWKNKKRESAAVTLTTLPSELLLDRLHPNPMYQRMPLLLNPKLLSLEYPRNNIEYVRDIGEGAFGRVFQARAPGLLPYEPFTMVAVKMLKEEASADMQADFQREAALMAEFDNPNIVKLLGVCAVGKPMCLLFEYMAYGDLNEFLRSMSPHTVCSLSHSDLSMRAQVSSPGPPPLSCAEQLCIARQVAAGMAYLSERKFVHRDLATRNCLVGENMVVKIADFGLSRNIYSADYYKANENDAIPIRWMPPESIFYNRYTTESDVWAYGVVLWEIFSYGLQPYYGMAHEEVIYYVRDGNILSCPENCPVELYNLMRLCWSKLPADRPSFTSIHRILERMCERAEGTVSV
- settings: at 0.1 µM
Note: a bare number is incomplete; add the unit.

{"compound": "CS(=O)(=O)CCNCc1nc(-c2ccc3ncnc(Nc4ccc(OCc5cccc(C(F)(F)F)c5)cc4)c3c2)cs1", "measurement": "1.29%"}
{"compound": "FC(F)(F)c1ccc(-c2nn3ncccc3c2-c2ccnc(Nc3ccc4c(c3)OCCO4)n2)cc1", "measurement": "7.57%"}
{"compound": "Cc1cc(-c2ccccn2)cc(C)c1/C=C/c1cncc(-c2nn[nH]n2)c1", "measurement": "3.02%"}
{"compound": "COc1cccc(-n2ncc3c(N/N=C/c4ccc(S(C)(=O)=O)cc4)ncnc32)c1", "measurement": "12.1%"}

Tested system Muscle, skeletal receptor tyrosine-protein kinase (Homo sapiens) (UniProt O15146); inhibition recorded for CCCN1CCCC(c2ccc(Nc3nc(Nc4cc(F)ccc4C(N)=O)c4cc[nH]c4n3)c(OC)c2)C1 (stereo not given) was 3.6%

----------
Measured inhibition, listed per entry for reference.
- experimental-system: Ribosomal protein S6 kinase alpha-3 (Homo sapiens);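 note: reported value is a mean inhibition figure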
- settings: at 0.1 µM
The answer is to be given in %; state only the numeric part.

{"mol": "Nc1nccc(-c2c(-c3ccc(F)cc3)nn3cc(C(F)(F)F)ccc23)n1", "endpoint-label": "inhibition", "unit-spec": "%", "measurement": -0.83}
{"mol": "COc1cc2ncnc(Nc3ccc(C)c(O)c3)c2cc1OC", "endpoint-label": "inhibition", "unit-spec": "%", "measurement": 1.52}
{"mol": "CCn1c(-c2nonc2N)nc2ccc(F)cc21", "endpoint-label": "inhibition", "unit-spec": "%", "measurement": 2.79}
{"mol": "O=C1Nc2ccc(-c3cccnc3)cc2C1=Cc1cc(Br)c(O)c(Br)c1", "endpoint-label": "inhibition", "unit-spec": "%", "measurement": 0.76}

Entry under test: COC(=O)Nc1nc2cc(Oc3ccc(NC(=O)Nc4cccc(Br)c4)cc3)ccc2[nH]1 . Its inhibition was 1.69

----------
- experimental-system: Serine/threonine-protein kinase PAK 2 (Homo sapiens) (UniProt Q13177);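 note: reported values are mean inhibition of PAK2, averaged over measurements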
- Sequence (Q13177 whole entry): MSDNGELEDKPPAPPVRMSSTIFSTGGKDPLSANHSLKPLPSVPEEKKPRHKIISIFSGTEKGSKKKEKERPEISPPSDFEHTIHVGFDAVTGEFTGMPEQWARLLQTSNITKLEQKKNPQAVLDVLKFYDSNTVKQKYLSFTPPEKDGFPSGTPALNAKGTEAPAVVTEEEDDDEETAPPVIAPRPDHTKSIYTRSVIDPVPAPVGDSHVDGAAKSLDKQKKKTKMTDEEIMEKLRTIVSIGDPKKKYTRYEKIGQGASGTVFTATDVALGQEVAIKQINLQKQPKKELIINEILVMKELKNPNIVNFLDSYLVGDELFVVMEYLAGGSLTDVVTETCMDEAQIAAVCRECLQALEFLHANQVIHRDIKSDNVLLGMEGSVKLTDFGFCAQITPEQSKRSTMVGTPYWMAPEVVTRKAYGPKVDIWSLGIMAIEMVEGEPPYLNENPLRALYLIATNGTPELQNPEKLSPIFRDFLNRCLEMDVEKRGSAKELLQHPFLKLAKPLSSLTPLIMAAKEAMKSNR
- settings: at 1 µM
Listed here: items and their measured inhibition.
Answer with a number only, understood to be in %.

Example entries begin here.
{"mol": "C[C@@H](Oc1cc(-n2cnc3ccc(OC[C@@H](O)CO)cc32)sc1C(N)=O)c1ccccc1Cl", "inhibition [%]": -0.42}
{"mol": "Cc1cc(Cl)cc2c1NC(=O)C2=NNc1ccc(S(N)(=O)=O)cc1", "inhibition [%]": 0.72}
{"mol": "CCS(=O)(=O)c1ccc(OC)c(Nc2nccc(N(C)c3ccc4c(C)n[nH]c4c3)n2)c1", "inhibition [%]": 1.86}

Noted inhibition for CCn1c(-c2nonc2N)nc2c(C#CC(C)(C)O)nc(OCCNC)cc21 , tested on Serine/threonine-protein kinase PAK 2 (Homo sapiens) (UniProt Q13177): 2.27

Value sought: inhibition, system Serine/threonine-protein kinase PAK 2 (Homo sapiens) (UniProt Q13177), item CC(C)c1ccc2c(c1)NC(=O)/C2=N/Nc1ccc(S(N)(=O)=O)cc1 . Result: -1.73
